Values from FireProtDB

B1: L-asparaginase 2, P00805 (parent)
chain: MEFFKKTALAALVMGFSGAALALPNITILATGGTIAGGGDSATKSNYTVGKVGVENLVNAVPQLKDIANVKGEQVVNIGSQDMNDNVWLTLAKKINTDCDKTDGFVITHGTDTMEETAYFLDLTVKCDKPVVMVGAMRPSTSMSADGPFNLYNAVVTAADKASANRGVLVVMNDTVLDGRDVTKTNTTDVATFKSVNYGPLGYIHNGKIDYQRTPARKHTSDTPFDVSKLNELPKVGIVYNYANASDLPAKALVDAGYDGIVSAGVGNGNLYKSVFDTLATAAKTGTAVVRSSRVPTGATTQDAEVDDAKYGFVASGTLNPQKARVLLQLALTQTKDPQQIQQIFNQY

variants of: B1; conditions: Escherichia coli (strain K12); pH 7.4; 25 °C; Urea; Fluorescence; Tris-HCl 50 mM; structure 3ECA; whole UniProt chain shown
Measured unfolding free energy, listed per entry for reference.
Don't forget the unit after the number, please.

>>> assay_value("S144A")
"12.4 kcal/mol"
>>> assay_value("T34S")
"11.2 kcal/mol"
>>> assay_value("T141A")
"11.5 kcal/mol"

Next item in the queue.
Exam item: Recorded unfolding free energy of "T34A" , please.
Marked response: 11.5 kcal/mol
